Exercise: state measured growth AUC for each of the compounds provided.
system: Odoribacter splanchnicus; assay: growth AUC relative to DMSO control (median of replicates) (fraction); higher = more growth (less inhibition), active = hit call of the paper; details: 20 µM; 24 h
Numbers only.

# count of solved cases: 3
# COMPOUND, growth AUC
records = [
    ("C1=Cc2cccc3cccc1c23", 0.99),
    ("COC[C@H](C)N(C(=O)CCl)c1c(C)csc1C", 0.976),
    ("CCCN(CC1CC1)c1c([N+](=O)[O-])cc(C(F)(F)F)cc1[N+](=O)[O-]", 0.943),
]

Value sought for every listed compound: growth AUC.
1. CS(=O)(=O)c1ccc(C(=O)C2C(=O)CCCC2=O)c(Cl)c1
2. O=c1oc2ccccc2c(O)c1C1CC(c2ccc(-c3ccc(Br)cc3)cc2)Cc2ccccc21 (centres undefined)
3. CCCC(Cn1cncn1)c1ccc(Cl)cc1Cl (centres undefined)

RESULT:
1. 1.04
2. 0.99
3. 0.962

###

system: Clostridium difficile; experiment: growth AUC relative to DMSO control (median of replicates) (fraction); higher = more growth (less inhibition), active = hit call of the paper; conditions: 20 µM; 24 h
Kindly return y if reported growth AUC is no lower than 1; return n if it is lower.

QUERY: growth AUC >= 1 for O=C(O)C(F)(F)C(F)(F)C(F)(F)C(F)(F)C(F)(F)C(F)(F)C(F)(F)C(F)(F)C(F)(F)F ?
RESULT: n

QUERY: Is growth AUC at least 1? Consider CCOP(=O)(OCC)OP(=O)(OCC)OCC
RESULT: y

QUERY: Hello, I need to know if O=C(NC(=O)c1c(F)cccc1F)Nc1ccc(Cl)c(Oc2ncc(C(F)(F)F)cc2Cl)c1 has measured growth AUC not below 1. Thanks!
RESULT: y

QUERY: Check if growth AUC >= 1 (inclusive). Item: COc1cc(OC)nc(Oc2cccc(Oc3nc(OC)cc(OC)n3)c2C(=O)[O-])n1.[Na+]
RESULT: y

QUERY: Threshold query (growth AUC >= 1) on OC[C@@H](O)[C@H]1O[C@@H]2O[C@H](C(Cl)(Cl)Cl)O[C@@H]2[C@H]1O (mixture of isomers)
RESULT: y

QUERY: API: above_or_equal(metric=growth AUC, cutoff=1) for item O=P(OC(CCl)CCl)(OC(CCl)CCl)OC(CCl)CCl
RESULT: n

QUERY: Hi, just wondering whether CCNc1nc(Cl)nc(NC(C)C)n1 shows growth AUC of 1 or higher.
RESULT: n

QUERY: Please check the record COc1cc(Cl)c(OC)cc1Cl and state if its growth AUC is at or above 1.
RESULT: y

QUERY: Confirm if growth AUC reported for the molecule Oc1c(Cl)c(Cl)cc(Cl)c1Cl is 1 or above.
RESULT: n

QUERY: Record CC(C)=CC1C(C(=O)OCN2C(=O)C3=C(CCCC3)C2=O)C1(C)C (centres undefined) ; criterion: growth AUC no lower than 1. Met?
RESULT: n

QUERY: Given the entry CCN(CC)C(=O)C(C)Oc1cccc2ccccc12 (centres undefined) , answer whether its growth AUC meets or surpasses 1.
RESULT: n

QUERY: Check the entry CCN(CC)C(=O)/C(Cl)=C(/C)OP(=O)(OC)OC : does growth AUC equal or exceed 1?
RESULT: n

QUERY: Hi, just wondering whether CC(C)[C@@H](Nc1ccc(C(F)(F)F)cc1Cl)C(=O)OC(C#N)c1cccc(Oc2ccccc2)c1 (some centres undefined) shows growth AUC of 1 or higher.
RESULT: y
